Below, each of the compounds is paired with its reported growth value.
- Tested on: SK-MEL-5 melanoma
- assayExplanation: NCI-60 one-dose screen, 48 h (100 = growth as untreated, 0 = no growth, -100 = all killed)
- assayContext: 10 µM unless noted
Compounds without any hit were thinned out: in the full panel of roughly 83,000, 20% have a hit.
Answer in %, number only, no unit symbol.

Recorded results for 5 compounds are shown here.
compound: S=C(Cc1ccc2c(c1)CCCC2)N1CCOCC1
target: SK-MEL-5 melanoma
growth / %: 102
--
compound: CC1(C)CC(=O)CC2(C1)N=C(N)Nc1nc3ccccc3n12 (stereo not drawn)
target: SK-MEL-5 melanoma
growth / %: 97.4
--
compound: Cc1ccccc1NC(=O)N/C(N)=N/c1nc(C)c(C)s1
target: SK-MEL-5 melanoma
growth / %: 40.5
--
compound: COc1ccc(C2CC(c3cccc(OC)c3)=NN2C(=O)c2cc(OC)c(OC)c(OC)c2)cc1 (stereo not drawn)
target: SK-MEL-5 melanoma
growth / %: -3.53
--
compound: Cc1ccc(C(=O)C2=C(O)C(=O)N(Cc3cccnc3)C2c2ccccc2F)o1 (stereo not drawn)
target: SK-MEL-5 melanoma
growth / %: 100

Item under review: `CC/C=C1/C(=O)C=C[C@@H]1C/C=C\CCCC(=O)O` . Reported growth? 81.5

I'd like to know its growth. The compound in question is `O=C(Nc1ccc(Nc2ccncc2)cc1)c1ccc(C(=O)Nc2ccc(Nc3ccncc3)cc2)cc1` 34.4

Look at this compound and give its reported growth. `COC(=O)[C@H](CSC)N(C)C(=O)[C@@H]1CSSC[C@@H](NC(=O)c2nc3ccccc3cc2O)C(=O)NCC(=O)N1C` 38

Name the recorded growth for `Clc1cccc(Cl)c1/C=C/c1cc(/C=C/c2c(Cl)cccc2Cl)[nH]n1` . 22.9

Give its growth value. Item: `Cc1cc(=O)oc2c1ccc1oc(C#N)c(C)c12` 100

Could you share which growth value was measured for `O=c1[nH][n+](-c2ccc(Cl)cc2)no1` ? 96.1

Could you tell me which growth is on file for `Cn1c(-c2c(N)n(Cc3ccc(C(F)(F)F)cc3)c3nc(C#N)c(C#N)nc23)nc2ccccc21` ? -10.4

Which growth reading was recorded for the compound `COc1ccc(/C=C/c2c(C(=O)/C=C/c3ccc(F)cc3)c(C)nc3ccccc23)cc1` ? 63.4

Reported growth for `CCc1ccccc1NC(=O)/C(C#N)=C/c1ccc(OC)cc1` : what is it? 96.3

Would you mind telling me what growth value was observed for `CC/C=C\CCC/C=C1/C(=O)C=C[C@@H]1C/C=C\CCCC(=O)O` ? 16.9

For `N#Cc1c(N)nc(NCCO)nc1-c1ccc(F)cc1` , what is its reported growth? 95

Fill in the blank: the reported growth of `CN(C)c1ccc(-c2cc(-c3ccc(Nc4nc(Nc5ccc(Cl)cc5)nc(Nc5ccc(Cl)cc5)n4)cc3)no2)cc1` is ____. 34.5

What growth value was documented for this compound, `O=C(NCCCNc1cc(-c2cn(-c3ccccc3)nc2-c2cccc(O)c2)ccn1)c1cccc(O)c1` ? 43.7

Using the record for CCSC1=NC2C(N(CC)C(=O)N2CC)N1/N=C/C=C/c1ccccc1[N+](=O)[O-] (stereo not drawn) , report its growth. -38.6

Any idea what growth was measured for `COc1ccc(-c2cc(-c3cc(OC)ccc3OC)nc(SCC(=O)c3ccccc3)c2C#N)cc1` ? 98.8

Give its growth value. Item: `Cc1ccc(S(=O)(=O)Oc2cc(OS(=O)(=O)c3ccc(C)cc3)cc(OS(=O)(=O)c3ccc(C)cc3)c2)cc1` 94.4

growth lookup needed for `NCCCNc1nc2ccccc2c2c(=O)c3cccc(Cl)c3sc12` , thanks. 60.3

Name the recorded growth for `O=c1c2c3c(sc2nc(N/N=C/c2ccc(Br)cc2)n1Cc1ccccc1)CCCC3` . 87.2

* * *

- Test system: UACC-257 melanoma
- assayExplanation: NCI-60 one-dose screen, 48 h (100 = growth as untreated, 0 = no growth, -100 = all killed)
- assayContext: 10 µM unless noted
The panel holds about 83,000 compounds, 20% with a hit somewhere; the sample as a whole holds those more often.
measure: growth (%)
Report as a plain number; the unit % is understood.

Example entries and their recorded answers appear below.
compound: COc1ccc(/C=C/c2c(C(=O)/C=C/c3ccc(F)cc3)c(C)nc3ccccc23)cc1
unitSymbol: %
growth: 66.6

compound: CC(CCc1ccc(Cl)c(Cl)c1)NCc1ccc(C(C)(C)C)cc1 (configuration not stated)
unitSymbol: %
growth: 64.5

compound: O=c1c2cc(F)ccc2sc2c(Nc3cccnc3)nc3ccccc3c12
unitSymbol: %
growth: 97.8

So what does the record say about growth for `Cc1ccc(-c2cc(-c3ccccc3C)[nH]c(=O)c2C#N)s1` ? 107

Which growth is listed for `CN(C)CCNc1nc2ccccc2c2c1c1c(n2Cc2ccccc2)-c2ccccc2C1=O` ? -85.3

Consider the compound O=c1cc(C2NNC(=S)N2)c2ccc3ccccc3c2o1 (configuration not stated) and give its measured growth. 116

What value of growth has been reported for the following compound? `Cc1cc[c-]cc1.Fc1c[c-]c(-c2ccccn2)c(F)c1.[Pt+2].c1ccc(P(C[PH+](c2ccccc2)c2ccccc2)c2ccccc2)cc1` -12.1

* * *

- System: SF-539 CNS
- assayExplanation: NCI-60 one-dose screen, 48 h (100 = growth as untreated, 0 = no growth, -100 = all killed)
- assayContext: 10 µM unless noted
About 83,000 compounds went through this panel and 20% of them were active in at least one assay; those are over-represented in the sample as a whole.
measure: growth (%)
Kindly provide the numeric value in % only, without the unit symbol.

The following compounds have reported results that may help.
compound: COc1ccc(Cl)cc1NC(=O)C(Br)C(Br)C(=O)O (stereo unspecified)
growth, %: 77.7
--
compound: Cc1ccc2[nH]c(=O)c3c(c2c1)OC(N)=C(C#N)C31c2cc(Br)ccc2-c2ccc(Br)cc21
growth, %: 85.5
--
compound: CC(C)=C[C@@H]1c2c(c3ccccc3n(C)c2=O)O[C@H]2c3c(c4ccccc4n(C)c3=O)OC(C)(C)[C@@H]12
growth, %: 81.2
--
compound: COc1ccc(-c2nc3c(N)c(CO)c(C)nc3o2)cc1
growth, %: 93.9
--
compound: Cc1cc[c-]cc1.Fc1c[c-]c(-c2ccccn2)c(F)c1.[Pt+2].c1ccc(P(C[PH+](c2ccccc2)c2ccccc2)c2ccccc2)cc1
growth, %: 21.5

Quick one: growth for `COc1ccc(OC)c2c1[nH]c(=O)c1c3ncccc3cn21` ? 37.2

Could you tell me which growth is on file for `Clc1cccc(Cl)c1C(Nc1nc2ccccc2s1)Nc1nc2ccccc2s1` ? 93.6

So what's the measured growth for this one? `COc1cc(-c2nn(-c3ccccc3)cc2-c2ccnc(NCCNS(=O)(=O)c3ccc(Cl)cc3)n2)ccc1Cl` 60.3

Fill in: growth of Cn1c2c(c3ccc(Cl)c(Cl)c31)C(C#N)C1(CCNCC1)NC2=O (stereo unspecified) is ___ 56.8

growth lookup needed for `O=C(O)CN1C(=O)CCC1=O` , thanks. 99

What does the record list as growth for `Cc1cc(NCc2cc(Nc3ccnc4cc(Cl)ccc34)ccc2F)nc(Cl)n1` ? 73.3

* * *

- Test system: PC-3 prostate
- assayExplanation: NCI-60 one-dose screen, 48 h (100 = growth as untreated, 0 = no growth, -100 = all killed)
- assayContext: 10 µM unless noted
Compounds without any hit were thinned out: in the full panel of roughly 83,000, 20% have a hit.
// growth lookup, one value per entry
Give just the numeric value; % need not be written.

molecule: O=C(CC(SCc1ccccc1)c1ccccc1)c1ccccc1 (configuration not stated)
measure: growth
readoutNumber: 88.8

Reported growth for PC-3 prostate, given `C[n+]1cc2c3c(ccc2c2ccc4cc5c(cc4c21)OCO5)OCO3` ? -72.8

What value of growth on PC-3 prostate does `O=C(N=c1oc2ccccc2cc1-c1cc2ccccc2[nH]1)c1ccc(Cl)cc1` have? 27.2

Recorded growth for `Cc1ccc(Cl)cc1NC(=O)c1cc2ccccc2cc1O` with PC-3 prostate, please? -12.6

Notebook: pull reported growth for PC-3 prostate, entry `O=C(Nc1ccc(-n2cc(-c3ccncc3)c(-c3ccc(Cl)c(O)c3)n2)cc1)N1CCOCC1` 87.4

Hello, I am looking for reported growth with PC-3 prostate for `COc1cccc(-c2nn(-c3ccccc3)cc2-c2ccnc(NCCNC(=O)Nc3ccc(Cl)c(Cl)c3)c2)c1` . Could you help? 4.19

// fetch PC-3 prostate growth for `Cc1ccc(/C=C/c2c(C(=O)/C=C/c3ccc(Cl)cc3)c(C)nc3ccccc23)cc1` 11.6

* * *

- Tested on: PC-3 prostate
- assayExplanation: NCI-60 one-dose screen, 48 h (100 = growth as untreated, 0 = no growth, -100 = all killed)
- assayContext: 10 µM unless noted
Compounds without any hit were thinned out: in the full panel of roughly 83,000, 20% have a hit.
growth values for the compounds below.
Numbers only here, please. The scale is %.

compound: COc1nc(N(C)O)nc(N(C)O)n1
unitSymbol: %
growth: 42.9
--
compound: O=C(Nc1cccc(Cl)c1)c1cc(N=Nc2ccc([N+](=O)[O-])cc2Cl)ccc1O
unitSymbol: %
growth: 34.8
--
compound: N#Cc1c(-c2cccc(Cl)c2)cc(-c2cccc(F)c2)[nH]c1=O
unitSymbol: %
growth: 85.3

Now for the compound whose growth we want.
So what's the measured growth for this one? `O=C1c2cccc(NCCN=Cc3cc([N+](=O)[O-])ccc3O)c2C(=O)c2c(NCCN=Cc3cc([N+](=O)[O-])ccc3O)cccc21` 50
